Tested on: T-24
Assay: Cytotoxicity against human T24 cells assessed as inhibition of cell growth incubated for 48 hrs by CCK-8 assay
Assay type: functional, cell-based
Details: T-24, 48 h
# reported pIC50; entries follow
Note on pIC50: it is the negative log10 of concentration, concentration in mol/L.

Field: example entries. Status: answers known.
{"MOLECULE": "CC(=O)O[C@H]1CC[C@@]2(C)C(=CC[C@H]3[C@@H]4C[C@@H]5O[C@H](CC[C@@H](C)COC(=O)[C@@H](N)Cc6c[nH]c7ccccc67)[C@@H](C)[C@@H]5[C@@]4(C)CC[C@@H]32)C1", "EXPERIMENTAL_VALUE": 5.20}
{"MOLECULE": "C[C@@H]1CC[C@@]2(OC1)O[C@H]1C[C@H]3[C@@H]4CC=C5C[C@@H](OC(=O)[C@@H]6CCCN6)CC[C@]5(C)[C@H]4CC[C@]3(C)[C@H]1[C@@H]2C", "EXPERIMENTAL_VALUE": 5.02}

Give T-24 pIC50 for C[C@@H]1CC[C@@]2(OC1)O[C@H]1C[C@H]3[C@@H]4CC=C5C[C@@H](OC(=O)[C@@H](N)Cc6c[nH]c7ccccc67)CC[C@]5(C)[C@H]4CC[C@]3(C)[C@H]1[C@@H]2C
5.15

Tell me reported pIC50 for C[C@@H]1CC[C@@]2(OC1)O[C@H]1C[C@H]3[C@@H]4CC=C5C[C@@H](OC(=O)[C@@H](N)Cc6ccccc6)CC[C@]5(C)[C@H]4CC[C@]3(C)[C@H]1[C@@H]2C , tested with T-24.
4.97

Kindly state the measured pIC50 obtained for CC(=O)O[C@H]1CC[C@@]2(C)C(=CC[C@H]3[C@@H]4C[C@@H]5O[C@H](CC[C@@H](C)COC(=O)[C@@H](N)C(C)C)[C@@H](C)[C@@H]5[C@@]4(C)CC[C@@H]32)C1 with T-24.
5.31

###

Test system: T-24
Assay: Cytotoxicity against human T24 cells assessed as inhibition of cell growth incubated for 48 hrs by CCK-8 assay
Assay type: functional, cell-based
Details: T-24, 48 h
Listing of recorded pIC50 by entry.
Expect pIC50 as a plain number equal to -log10 of the molar concentration.

Below, each entry is followed by its recorded pIC50 result.
{"MOLECULE": "C[C@@H]1CC[C@@]2(OC1)O[C@H]1C[C@H]3[C@@H]4CC=C5C[C@@H](O)CC[C@]5(C)[C@H]4CC[C@]3(C)[C@H]1[C@@H]2C [DISOGENIN]", "pIC50": 4.54}
{"MOLECULE": "CC(C)[C@H](N)C(=O)O[C@H]1CC[C@@]2(C)C(=CC[C@H]3[C@@H]4C[C@@H]5O[C@]6(CC[C@@H](C)CO6)[C@@H](C)[C@@H]5[C@@]4(C)CC[C@@H]32)C1", "pIC50": 4.93}

Kindly review the next molecule as well.
Lab note: need pIC50 with T-24 for entry CC(=O)O[C@H]1CC[C@@]2(C)C(=CC[C@H]3[C@@H]4C[C@@H]5O[C@H](CC[C@@H](C)COC(=O)[C@H](C)N)[C@@H](C)[C@@H]5[C@@]4(C)CC[C@@H]32)C1 , please look it up.
4.94

###

Test system: T-24
Assay: Cytotoxicity against human T24 cells assessed as inhibition of cell growth incubated for 48 hrs by CCK-8 assay
Format: functional, cell-based
Settings: T-24, 48 h
RECORDED_METRIC: pIC50
The scale used: pIC50 is minus the common logarithm of the concentration in molar units.

{"MOLECULE": "CC(=O)O[C@H]1CC[C@@]2(C)C(=CC[C@H]3[C@@H]4C[C@@H]5O[C@H](CC[C@@H](C)COC(=O)[C@@H](N)CC(C)C)[C@@H](C)[C@@H]5[C@@]4(C)CC[C@@H]32)C1", "EXPERIMENTAL_SYSTEM": "T-24", "pIC50": 5.25}
{"MOLECULE": "O=c1[nH]cc(F)c(=O)[nH]1 [FLUOROURACIL]", "EXPERIMENTAL_SYSTEM": "T-24", "pIC50": 4.89}
{"MOLECULE": "C[C@@H]1CC[C@@]2(OC1)O[C@H]1C[C@H]3[C@@H]4CC=C5C[C@@H](OC(=O)[C@H](C)N)CC[C@]5(C)[C@H]4CC[C@]3(C)[C@H]1[C@@H]2C", "EXPERIMENTAL_SYSTEM": "T-24", "pIC50": 5.04}

Now for a further molecule.
Looking for the measured pIC50 of CC(=O)O[C@H]1CC[C@@]2(C)C(=CC[C@H]3[C@@H]4C[C@@H]5O[C@H](CC[C@@H](C)COC(=O)CN)[C@@H](C)[C@@H]5[C@@]4(C)CC[C@@H]32)C1 , can you help?
4.98

Each recorded value in this set is attributed to ChEMBL document CHEMBL4813993.
